Origin of the recorded values: paper PMC12951562

Reported percent of DMSO vehicle control at 10 µM values are given for each entry in this list.
target: CRKL (Homo sapiens); construct: the DNA-tagged SH2 domain concentrations used in this study were <0.1 nM; made in house; host or cells: HEK293 (transient transfection; unpurified extract); assay: biochemical; format: binding; settings: read-out: percent of DMSO vehicle control
Sequence (P46109 14-102 limits assumed): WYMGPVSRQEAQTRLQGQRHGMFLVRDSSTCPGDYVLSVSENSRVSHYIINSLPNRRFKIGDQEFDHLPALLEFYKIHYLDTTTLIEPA
Non-standard residues stand in square brackets, D forms with d. Residues, ends and D or L forms follow the SMILES beside them. *: point of attachment. pY = N[C@@H](Cc1ccc(OP(=O)(O)O)cc1)C(=O)O; Caffeoyl = O=C(/C=C/c1ccc(O)c(O)c1)*

molecule	percent of DMSO vehicle control at 10 µM (%)
NC(=O)CC[C@H](NC(=O)[C@@H]1CC[C@@H]2CCN(C(=O)CCCCCC#Cc3cccc4c3CN(C3CCC(=O)NC3=O)C4=O)C[C@H](NC(=O)c3cc4cc(C(F)(F)P(=O)(O)O)ccc4[nH]3)C(=O)N21)C(=O)NC(c1ccccc1)c1ccccc1 (stereo partly shown)	119
CC[C@H](C)[C@H](NC(=O)[C@H](CCC(=O)O)NC(=O)[C@H](CCC(=O)O)NC(=O)[C@H](Cc1ccc(OP(=O)(O)O)cc1)NC(=O)/C=C/c1ccc(O)c(O)c1)C(=O)N[C@@H](CCC(=O)O)C(=O)O [Caffeic acid-pYEEIE] (Caffeoyl-[pY]EEIE-OH)	42.1
CC(=O)N1CC[C@H]2CC[C@@H](C(=O)N[C@@H](CCC(N)=O)C(=O)NC(c3ccccc3)c3ccccc3)N2C(=O)[C@@H](NC(=O)c2cc3cc(C(F)(F)P(=O)(O)O)ccc3[nH]2)C1	125
CC(=O)N[C@@H](Cc1ccc(CP(=O)(O)O)cc1)C(=O)NC1(C(=O)N[C@@H](CC(N)=O)C(=O)NCCCc2c(O)ccc3ccccc23)CCCCC1	36.4
